# TARGET_OR_TEST_SYSTEM: Hexose transporter 1 (Plasmodium falciparum)
# TEST_NAME: ST_JUDE_LEISH: Cytotoxicity at 2uM final concentration against transgenic Leishmania Mexicana promastigotes LmPfHT that are glucose transport deficient and complemented with the Plasmodium falciparum hexose transporter. Activity is measured by DNA content using SYBR green in vitro
# Type: functional
Measured inhibition, listed per entry.
Give the quantity in %, number only.

Kindly state the measured inhibition obtained for `CCn1c(Sc2ccc(C#N)c([N+](=O)[O-])c2)nnc1-c1ccc(Cl)cc1` with Hexose transporter 1 (Plasmodium falciparum).
3.08

Kindly state the measured inhibition obtained for O=C(NC1CCCc2ccccc21)[C@@H]1CCCN1C(=O)c1ccc(O)c(-c2cccc([N+](=O)[O-])c2)c1 (stereo partly drawn) with Hexose transporter 1 (Plasmodium falciparum).
1.92

Kindly state the measured inhibition obtained for CN1CCCC1CCNCc1cccc(-c2cnc(N(C)C3CCCCC3)nc2)c1 (stereo not drawn) with Hexose transporter 1 (Plasmodium falciparum).
102

Kindly state the measured inhibition obtained for `COc1ccc(CCCON2C(=N)N=C(N)NC2(C)C)cc1` with Hexose transporter 1 (Plasmodium falciparum).
23

Kindly state the measured inhibition obtained for O=C(NCC1CCC(C(=O)NC2CCCc3ccccc32)CC1)c1ccc(O)c(-c2ccc(Cl)c(Cl)c2)c1 (stereo not drawn) with Hexose transporter 1 (Plasmodium falciparum).
2.81

More entries:
Kindly state the measured inhibition obtained for CC(=O)c1cccc2cc(C(=O)NC3CCC(CCN4CCc5ccc(C#N)cc5C4)CC3)[nH]c12 (stereo not drawn) with Hexose transporter 1 (Plasmodium falciparum).
2

Kindly state the measured inhibition obtained for `Cc1cc(NCCCCCCN)nc(Nc2ccc(Cl)cc2)n1` with Hexose transporter 1 (Plasmodium falciparum).
5.27

Kindly state the measured inhibition obtained for `CS(=O)(=O)c1ccc2nc(NC(=O)c3csnn3)sc2c1` with Hexose transporter 1 (Plasmodium falciparum).
3.89

Kindly state the measured inhibition obtained for `O=C1c2ccccc2CN1CCCN1CCC(Oc2ccc(F)cc2)CC1` with Hexose transporter 1 (Plasmodium falciparum).
-2.18

Kindly state the measured inhibition obtained for CC(C)(C)c1ccc(OC(=O)c2ccc(NC(=O)N[C@@H](Cc3ccc(O)cc3)C(=O)NC3CCN(Cc4ccc(O)cc4)C3)cc2)cc1 (stereo partly drawn) with Hexose transporter 1 (Plasmodium falciparum).
4

Kindly state the measured inhibition obtained for `CC(C)CNCc1ccc(-c2cccc(CNC3CCN(Cc4ccccc4)CC3)c2)cc1` with Hexose transporter 1 (Plasmodium falciparum).
3.32

Kindly state the measured inhibition obtained for C=CCOC(=O)N1CCC(CNCc2cccc(-c3cccc(-c4nc5ccccc5[nH]4)c3)c2)C1 (stereo not drawn) with Hexose transporter 1 (Plasmodium falciparum).
5.8

Kindly state the measured inhibition obtained for `O=C(C=Cc1cn(-c2ccccc2)nc1-c1cccs1)N1CCN(c2ccncc2)CC1` with Hexose transporter 1 (Plasmodium falciparum).
0.46

Kindly state the measured inhibition obtained for `COc1ccc2c(=NN=Cc3ccc(OC)c4ccccc34)cc(C)[nH]c2c1` with Hexose transporter 1 (Plasmodium falciparum).
1.71

Kindly state the measured inhibition obtained for CC(CCCCCC(=O)Nc1ccc(CC(C)NCCc2cccc(Cl)c2)cc1)NCCc1cccc(Cl)c1 (stereo not drawn) with Hexose transporter 1 (Plasmodium falciparum).
10.6

Kindly state the measured inhibition obtained for `CCOC(=O)c1[nH]c2cc(Cl)cc(Cl)c2c1/C=C/C(=O)Nc1ccc(-c2cnc(NC(C)=O)[nH]2)cc1` with Hexose transporter 1 (Plasmodium falciparum).
-2.31

Kindly state the measured inhibition obtained for COc1cc(C(=O)N2CCOC(CCN3CCC4c5ccccc5CC43)(c3ccc(Cl)c(Cl)c3)C2)cc(OC)c1OC (stereo not drawn) with Hexose transporter 1 (Plasmodium falciparum).
-2.68

Kindly state the measured inhibition obtained for `CC(C)c1ccc(Nc2nc(NCCc3c[nH]cn3)nc(NCc3ccccc3)n2)cc1` with Hexose transporter 1 (Plasmodium falciparum).
1.6

Kindly state the measured inhibition obtained for `CN(C)Cc1cccc(-c2ccc3ccnc(N)c3c2)c1` with Hexose transporter 1 (Plasmodium falciparum).
3.34
